# assayed.system: Aldo-keto reductase family 1 member B1 (Homo sapiens)
# protocol.description: Inhibition of human placental aldose reductase (HPAR) activity with glyceraldehyde as substrate
Documented IC50 across a set of molecules
Kindly answer with a numeric value in nM, unit omitted.

Worked examples, 6 molecules total:
molecule | IC50, nM
CSc1ccc(Cl)cc1C1NC(=O)NC1=O (stereo unspecified) | 620
CCCCCNS(=O)(=O)c1ccc(Cl)cc1C1NC(=O)NC1=O (stereo unspecified) | 190
COc1ccc(Cl)cc1C1NC(=O)NC1=O (stereo unspecified) | 3870
O=C1NC(=O)C(c2cc(Cl)ccc2SCc2ccc(Cl)cc2)N1 (stereo unspecified) | 1200
CS(=O)(=O)c1c(Cl)cc(Cl)cc1C1NC(=O)NC1=O (stereo unspecified) | 610
O=C1NC(=O)C(c2cc(Cl)ccc2S(=O)(=O)NCCCc2ccccc2)N1 (stereo unspecified) | 100

In: Return IC50 (reported value) for this molecule: Cc1cc(Cl)cc(C2NC(=O)NC2=O)c1S(C)(=O)=O (stereo unspecified)
Out: 270

In: Specify reported IC50 for the molecule shown: CN(C)S(=O)(=O)c1ccc(Cl)cc1C1NC(=O)NC1=O (stereo unspecified)
Out: 4470

In: // fetch IC50 given entry O=C1NC(=O)C(c2cc(Cl)ccc2S(=O)(=O)NCCCCc2ccccc2)N1 (stereo unspecified)
Out: 5630

In: Return IC50 for the following molecule: O=C1NC(=O)C(c2cc(Cl)ccc2S(=O)(=O)NCc2ccccc2)N1 (stereo unspecified)
Out: 30

In: Specify measured IC50 for CCCCCS(=O)(=O)c1ccc(Cl)cc1C1NC(=O)NC1=O (stereo unspecified) .
Out: 50

----------
Measured pIC50 accompanies every entry in the list below.
# assayed.system: Aldo-keto reductase family 1 member B1 (Homo sapiens)
# protocol.description: Compound was evaluated for inhibition of human placental aldose reductase (HPAR) activity with glyceraldehyde as substrate
Just the number, please; pIC50 means minus log10 of the concentration in mol/L.

compound | assayed.system | assay.result
CCCCNS(=O)(=O)c1ccc(Cl)cc1C1NC(=O)NC1=O (stereo not drawn) | Aldo-keto reductase family 1 member B1 (Homo sapiens) | 6.15
CS(=O)(=O)c1ccc(Cl)cc1C1NC(=O)NC1=O (stereo not drawn) | Aldo-keto reductase family 1 member B1 (Homo sapiens) | 7.30

Moving on to the next compound.
In: Given the compound C[S+]([O-])c1ccc(Cl)cc1C1NC(=O)NC1=O (stereo not drawn) , write its reported pIC50.
Out: 6.60

----------
Each item that follows carries a reported pIC50.
# assayed.system: Aldo-keto reductase family 1 member B1 (Homo sapiens, UniProt P15121)
# protocol.description: Inhibition of human placental aldose reductase (HPAR) activity with glyceraldehyde as substrate
To interpret pIC50, take it as minus log10 of a concentration measured in moles per litre.

Please review the following examples before continuing.
molecule | assayed.system | pIC50
COc1ccc(F)cc1C1NC(=O)NC1=O (stereo not given) | Aldo-keto reductase family 1 member B1 (Homo sapiens, UniProt P15121) | 5.13
O=C1NC(=O)C(c2cc(Cl)ccc2S(=O)(=O)Cc2ccc(Cl)cc2)N1 (stereo not given) | Aldo-keto reductase family 1 member B1 (Homo sapiens, UniProt P15121) | 6.57
CCCS(=O)(=O)c1ccc(Cl)cc1C1NC(=O)NC1=O (stereo not given) | Aldo-keto reductase family 1 member B1 (Homo sapiens, UniProt P15121) | 6.60
CCCCCCS(=O)(=O)c1ccc(Cl)cc1C1NC(=O)NC1=O (stereo not given) | Aldo-keto reductase family 1 member B1 (Homo sapiens, UniProt P15121) | 6.64
CS(=O)(=O)c1ccc(F)cc1C1NC(=O)NC1=O (stereo not given) | Aldo-keto reductase family 1 member B1 (Homo sapiens, UniProt P15121) | 6.21

In: Please supply the value of reported pIC50 for the item O=C1NC(=O)C(c2cc(Cl)ccc2S(=O)(=O)CCc2ccc(Cl)cc2)N1 (stereo not given)
Out: 6.66

----------
# assayed.system: Aldo-keto reductase family 1 member B1 (Homo sapiens)
# protocol.description: Inhibition of human placental aldose reductase (HPAR) activity with glyceraldehyde as substrate
Recorded IC50 by entry

Previously resolved entries follow.
compound | assayed.system | IC50
NS(=O)(=O)c1ccc(Cl)cc1C1NC(=O)NC1=O (centres undefined) | Aldo-keto reductase family 1 member B1 (Homo sapiens) | 150 nM
CS(=O)(=O)c1c(C2NC(=O)NC2=O)cc(Cl)cc1C(F)(F)F (centres undefined) | Aldo-keto reductase family 1 member B1 (Homo sapiens) | 580 nM
CCS(=O)(=O)c1ccc(Cl)cc1C1NC(=O)NC1=O (centres undefined) | Aldo-keto reductase family 1 member B1 (Homo sapiens) | 180 nM
CCCNS(=O)(=O)c1ccc(Cl)cc1C1NC(=O)NC1=O (centres undefined) | Aldo-keto reductase family 1 member B1 (Homo sapiens) | 580 nM
CC(C)S(=O)(=O)c1ccc(Cl)cc1C1NC(=O)NC1=O (centres undefined) | Aldo-keto reductase family 1 member B1 (Homo sapiens) | 380 nM

In: Item O=C1NC(=O)C(c2cc(Cl)ccc2S(=O)(=O)NCCc2ccccc2)N1 (centres undefined) : provide IC50
Out: 1260 nM

In: Indicate the recorded IC50 value for this compound: O=C1NC(=O)C(c2cc(Cl)ccc2[S+]([O-])Cc2ccc(Cl)cc2)N1 (centres undefined)
Out: 470 nM

In: Supply recorded IC50 for CNS(=O)(=O)c1ccc(Cl)cc1C1NC(=O)NC1=O (centres undefined) here.
Out: 130 nM

In: # return recorded IC50 for input O=C1NC(=O)C(c2cc(Cl)ccc2S(=O)(=O)Nc2ccc(F)cc2)N1 (centres undefined)
Out: 230 nM
